- MEASUREMENT_NOTES: Renal clearance in wild-type 30 mins activated charcoal pre-treated bile duct-cannulated Sprague-Dawley rat at 2 mg/kg, iv followed by activated charcoal administration 5 to 180 mins post compound dosing
- Format: ADME, organism-based, Kidney
- Set-up: dose 2 mg/kg, route intravenous
- PARTICULARS: in vivo
READOUT_KIND: CL renal (mL/min/kg)
# output: bare number, implied unit mL/min/kg

Sample COc1ccc(-n2nc(C(N)=O)c3c2[14C](=O)N(c2ccc(N4CCCCC4=O)cc2)CC3)cc1 ; CL renal observed: 13

---

- MEASUREMENT_NOTES: Cmax in bile duct-cannulated beagle dog at 1 mg/kg, iv administered as 5 mins infusion
- Format: ADME, organism-based, Canis lupus familiaris
- Set-up: dose 1 mg/kg, route intravenous
- PARTICULARS: in vivo
READOUT_KIND: Cmax (µg/mL)
# output: bare number, implied unit µg/mL

Sample COc1ccc(-n2nc(C(N)=O)c3c2[14C](=O)N(c2ccc(N4CCCCC4=O)cc2)CC3)cc1 ; Cmax observed: 4.43

---

- MEASUREMENT_NOTES: Cmax in P-gp-knockout Sprague-Dawley rat at 2 mg/kg, iv
- Format: ADME, organism-based
- Parameters: dose 2 mg/kg, route intravenous
- PARTICULARS: in vivo
READOUT_KIND: Cmax (ng/mL)
# output: bare number, implied unit ng/mL

Sample COc1ccc(-n2nc(C(N)=O)c3c2[14C](=O)N(c2ccc(N4CCCCC4=O)cc2)CC3)cc1 ; Cmax observed: 2160

---

- MEASUREMENT_NOTES: Drug recovery in bile of bile duct-cannulated beagle dog at 1 mg/kg, iv administered as 5 mins infusion measured up to 72 hrs
- Format: ADME, organism-based, Canis lupus familiaris
- Parameters: dose 1 mg/kg, route intravenous
- PARTICULARS: read-out: Drug recovery
READOUT_KIND: dose excreted

Sample COc1ccc(-n2nc(C(N)=O)c3c2[14C](=O)N(c2ccc(N4CCCCC4=O)cc2)CC3)cc1 ; dose excreted observed: 12.4%

---

- MEASUREMENT_NOTES: Clearance in BCRP-knockout Sprague-Dawley rat at 2 mg/kg, iv
- Format: ADME, organism-based
- Set-up: dose 2 mg/kg, route intravenous
- PARTICULARS: in vivo
READOUT_KIND: clearance (mL/min/kg)
# output: bare number, implied unit mL/min/kg

Sample COc1ccc(-n2nc(C(N)=O)c3c2[14C](=O)N(c2ccc(N4CCCCC4=O)cc2)CC3)cc1 ; clearance observed: 15

---

- MEASUREMENT_NOTES: Half life in wild-type bile duct-cannulated Sprague-Dawley rat at 2 mg/kg, iv
- Format: ADME, organism-based
- Design: dose 2 mg/kg, route intravenous
- PARTICULARS: in vivo
READOUT_KIND: half-life (h)
# output: bare number, implied unit h

Sample COc1ccc(-n2nc(C(N)=O)c3c2[14C](=O)N(c2ccc(N4CCCCC4=O)cc2)CC3)cc1 ; half-life observed: 1.2

---

- MEASUREMENT_NOTES: AUC (0 to 24 hrs) in beagle dog at 5 mg/kg, po followed by activated charcoal administration 0.25 hrs post compound dosing
- Type: ADME, organism-based, Canis lupus familiaris
- Parameters: time < 24 hr, dose 5 mg/kg, route oral
- PARTICULARS: plasma
READOUT_KIND: AUC(0-t) at 24 h (ng·h/mL)
# output: bare number, implied unit ng·h/mL

Sample COc1ccc(-n2nc(C(N)=O)c3c2C(=O)N(c2ccc(N4CCCCC4=O)cc2)CC3)cc1 ; AUC(0-t) at 24 h observed: 59500

---

- MEASUREMENT_NOTES: Half life in wild-type bile duct-cannulated Sprague-Dawley rat at 2 mg/kg, iv administered 0.125 hr post GF-120918 treatment
- Format: ADME, organism-based
- Design: dose 2 mg/kg, route intravenous
- PARTICULARS: in vivo, with GF-120918
READOUT_KIND: half-life
# output: numeric value plus its unit

Sample COc1ccc(-n2nc(C(N)=O)c3c2[14C](=O)N(c2ccc(N4CCCCC4=O)cc2)CC3)cc1 ; half-life observed: 2.8 h

---

- MEASUREMENT_NOTES: Drug recovery in bile of bile duct-cannulated P-gp-knockout Sprague-Dawley rat at 2 mg/kg, iv measured up to 24 hrs
- Assay type: ADME, organism-based
- Set-up: dose 2 mg/kg, route intravenous
- PARTICULARS: read-out: Drug recovery
READOUT_KIND: dose excreted at 24 h
# output: numeric value plus its unit

Sample COc1ccc(-n2nc(C(N)=O)c3c2[14C](=O)N(c2ccc(N4CCCCC4=O)cc2)CC3)cc1 ; dose excreted at 24 h observed: 14.1%

---

- MEASUREMENT_NOTES: AUC (0 to infinity) in P-gp-knockout Sprague-Dawley rat at 2 mg/kg, iv
- Format: ADME, organism-based
- Design: time infinity, dose 2 mg/kg, route intravenous
- PARTICULARS: plasma
READOUT_KIND: AUC(0-inf) (ng·h/mL)
# output: bare number, implied unit ng·h/mL

Sample COc1ccc(-n2nc(C(N)=O)c3c2[14C](=O)N(c2ccc(N4CCCCC4=O)cc2)CC3)cc1 ; AUC(0-inf) observed: 2040

---

- MEASUREMENT_NOTES: Oral bioavailability in wild-type Sprague-Dawley rat at 4 mg/kg
- Type: ADME, organism-based
- PARTICULARS: in vivo
READOUT_KIND: bioavailability

Sample COc1ccc(-n2nc(C(N)=O)c3c2C(=O)N(c2ccc(N4CCCCC4=O)cc2)CC3)cc1 ; bioavailability observed: 49%

---

- MEASUREMENT_NOTES: Half life in beagle dog at 5 mg/kg, po
- Type: ADME, organism-based, Canis lupus familiaris
- Set-up: dose 5 mg/kg, route oral
- PARTICULARS: in vivo
READOUT_KIND: half-life (h)
# output: bare number, implied unit h

Sample COc1ccc(-n2nc(C(N)=O)c3c2C(=O)N(c2ccc(N4CCCCC4=O)cc2)CC3)cc1 ; half-life observed: 5.7

---

- MEASUREMENT_NOTES: Volume of distribution at steady state in wild-type 30 mins activated charcoal pre-treated bile duct-cannulated Sprague-Dawley rat at 2 mg/kg, iv followed by activated charcoal administration 5 to 180 mins post compound dosing
- Format: ADME, organism-based
- Set-up: dose 2 mg/kg, route intravenous
- PARTICULARS: in vivo, read-out: Vdss
READOUT_KIND: Vd (L/kg)
# output: bare number, implied unit L/kg

Sample COc1ccc(-n2nc(C(N)=O)c3c2[14C](=O)N(c2ccc(N4CCCCC4=O)cc2)CC3)cc1 ; Vd observed: 1.2

---

- MEASUREMENT_NOTES: Drug recovery in bile of bile duct-cannulated Sprague-Dawley rat at 2 mg/kg, iv administered 1 hr post GF-120918 treatment measured up to 48 hrs
- Assay type: ADME, organism-based
- Parameters: dose 2 mg/kg, route intravenous
- PARTICULARS: with GF-120918, given 1 hr before the compound, read-out: Drug recovery
READOUT_KIND: dose excreted (%)
# output: bare number, implied unit %

Sample COc1ccc(-n2nc(C(N)=O)c3c2[14C](=O)N(c2ccc(N4CCCCC4=O)cc2)CC3)cc1 ; dose excreted observed: 14.7

---

- MEASUREMENT_NOTES: Drug recovery in feces of beagle dog at 1 mg/kg, iv administered as 5 mins infusion measured up to 72 hrs
- Assay type: ADME, organism-based, Canis lupus familiaris
- Set-up: dose 1 mg/kg, route intravenous
- PARTICULARS: read-out: Drug recovery
READOUT_KIND: dose excreted
# output: numeric value plus its unit

Sample COc1ccc(-n2nc(C(N)=O)c3c2[14C](=O)N(c2ccc(N4CCCCC4=O)cc2)CC3)cc1 ; dose excreted observed: 50.8%

---

- MEASUREMENT_NOTES: Oral steady-state volume of distribution in BCRP-knockout Sprague-Dawley rat at 4 mg/kg
- Assay type: ADME, organism-based
- Parameters: dose 4 mg/kg
- PARTICULARS: in vivo, read-out: Vss/F
READOUT_KIND: Vd/F (L/kg)
# output: bare number, implied unit L/kg

Sample COc1ccc(-n2nc(C(N)=O)c3c2C(=O)N(c2ccc(N4CCCCC4=O)cc2)CC3)cc1 ; Vd/F observed: 1.1

---

- MEASUREMENT_NOTES: Drug recovery in bile of bile duct-cannulated BCRP-knockout Sprague-Dawley rat at 2 mg/kg, iv measured up to 24 hrs
- Assay type: ADME, organism-based
- Parameters: dose 2 mg/kg, route intravenous
- PARTICULARS: read-out: Drug recovery
READOUT_KIND: dose excreted at 24 h (%)
# output: bare number, implied unit %

Sample COc1ccc(-n2nc(C(N)=O)c3c2[14C](=O)N(c2ccc(N4CCCCC4=O)cc2)CC3)cc1 ; dose excreted at 24 h observed: 12.7
